Assignment: determine reported MIC A. baumannii ATCC 19606 for the given compounds.
System: A. baumannii ATCC 19606
Assay type: cell-based, Acinetobacter baumannii
Description: The antimicrobial activity of peptides 9–26 was assessed against a range of reference bacterial strains such as S. aureus ATCC 25923, Staphylococcus epidermidis ATCC 12228, Bacillus megaterium Bm11, E. coli ATCC 25922, P. aeruginosa ATCC 27853, and A. baumannii ATCC 19606 by the broth microdilution assay to determine the minimal growth inhibitory concentration (MIC, Table 1).[59] […]
Bridge positions count the residues as written; N and C are the ends. Square brackets hold non-standard residues; d marks the D form. Triazole bridges read from a SMILES are 1,4-linked. Peptide text beside a SMILES is read from it. dLys(N3) = [N-]=[N+]=NCCCC[C@@H](N)C(=O)O; Lys(N3) = [N-]=[N+]=NCCCC[C@H](N)C(=O)O; Pra = C#CC[C@H](N)C(=O)O

Per the records, this compound ( CC[C@H](C)[C@H](NC(=O)[C@H](CCCNC(=N)N)NC(=O)CNC(=O)[C@H]1CCC(=O)NCCCC[C@H](NC(=O)[C@H](Cc2c[nH]c3ccccc23)NC(=O)[C@@H]2CCCN2C(=O)[C@@H](NC(=O)[C@@H](N)Cc2ccccc2)C(C)C)C(=O)N[C@@H](CO)C(=O)N[C@@H](CCCCN)C(=O)N[C@@H](Cc2ccccc2)C(=O)N1)C(=O)N[C@@H](CC(C)C)C(N)=O [compound 13] (H-FVPWKSKF[dE]GRIL-NH2; lactam 5-9) ) has MIC A. baumannii ATCC 19606 equal to >100 µM

Reported MIC A. baumannii ATCC 19606 for CC[C@H](C)[C@H](NC(=O)[C@H](CCCNC(=N)N)NC(=O)CNC(=O)[C@@H](CC(C)C)NC(=O)[C@@H]1CCC(=O)NCCCC[C@H](NC(=O)[C@@H]2CCCN2C(=O)[C@@H](NC(=O)[C@@H](N)Cc2ccccc2)C(C)C)C(=O)N[C@@H](Cc2ccccc2)C(=O)N[C@@H](CO)C(=O)N[C@@H](CCCCN)C(=O)N1)C(=O)N[C@@H](CC(C)C)C(N)=O [compound 14] (H-FVPKFSKE[dL]GRIL-NH2; lactam 4-8) was >100 µM

Noted for CC[C@H](C)[C@H](NC(=O)[C@H](CCCNC(=N)N)NC(=O)CNC(=O)[C@@H](CC(C)C)NC(=O)[C@@H]1CCCCn2cc(nn2)C[C@H](NC(=O)[C@@H]2CCCN2C(=O)[C@@H](NC(=O)[C@@H](N)Cc2ccccc2)C(C)C)C(=O)N[C@@H](Cc2ccccc2)C(=O)N[C@@H](CO)C(=O)N[C@@H](CCCCN)C(=O)N1)C(=O)N[C@@H](CC(C)C)C(N)=O [compound 19] (H-FVP[Pra]FSK[Lys(N3)][dL]GRIL-NH2; triazole 4-8) : its MIC A. baumannii ATCC 19606 reads >100 µM

Consider CC[C@H](C)[C@H](NC(=O)[C@H](CCCNC(=N)N)NC(=O)CNC(=O)[C@H]1CCCCn2cc(nn2)C[C@H](NC(=O)[C@H](Cc2c[nH]c3ccccc23)NC(=O)[C@@H]2CCCN2C(=O)[C@@H](NC(=O)[C@@H](N)Cc2ccccc2)C(C)C)C(=O)N[C@@H](CO)C(=O)N[C@@H](CCCCN)C(=O)N[C@@H](Cc2ccccc2)C(=O)N1)C(=O)N[C@@H](CC(C)C)C(N)=O [compound 18] (H-FVPW[Pra]SKF[dLys(N3)]GRIL-NH2; triazole 5-9) . Its measured MIC A. baumannii ATCC 19606 is 100 µM

For CC[C@H](C)[C@H](NC(=O)[C@H](CCCNC(=N)N)NC(=O)CNC(=O)[C@@H](CC(C)C)NC(=O)[C@H](Cc1ccccc1)NC(=O)[C@H](CCCCN)NC(=O)[C@H](CO)NC(=O)[C@H](Cc1ccccc1)NC(=O)[C@H](Cc1c[nH]c2ccccc12)NC(=O)[C@@H]1CCCN1C(=O)[C@@H](NC(=O)[C@@H](N)Cc1ccccc1)C(C)C)C(=O)N[C@@H](CC(C)C)C(N)=O [compound 9, [Pro^3,DLeu^9]TL, reference compound] (H-FVPWFSKF[dL]GRIL-NH2) the compound record lists MIC A. baumannii ATCC 19606 as 6.25 µM
